Measured melting point by item
parameter: melting point

1) C#CCOC(=O)Oc1ccc(Cc2ccc(OC(=O)OCC#C)cc2)cc1    60 °C
2) COc1ccc2[nH]c3c(c2c1)C(C(=O)O)CCC3 (stereo not given)    175 to 177 °C
3) O=C1C(CC23CC(c4ccccc42)c2ccccc23)OCCN1Cc1ccccc1 (stereo not given)    155 to 156 °C
4) COc1ccc(S(=O)(=O)n2ccc3ccnc(-c4ccc([N+](=O)[O-])cc4)c32)cc1    178 to 179 °C
5) CCCCCCCCCc1ccc(S(N)(=O)=O)cc1    94.5 to 95.2 °C
6) COC(=O)c1nccnc1NCc1ccncc1    95 °C
7) COc1cc(C(=O)Nc2nn(-c3ccccc3)cc2C=O)ccc1OCc1nc(-c2ccccc2)oc1C    234 to 235 °C
8) CC(C)NC(=O)Nc1ccc([N+](=O)[O-])cc1O    160 to 161 °C
9) CNS(=O)(=O)c1ccc(OC)c(C(=O)NCC2CCCN2CC2=CCCCC2)c1 (stereo not given)    140 to 141 °C
10) Cc1ccccc1-c1c(Cl)nc2ccccc2c1Cl    78 to 80 °C
